# CONDITION: in THF, 298.15 K
VALUE_TYPE: solubility (mole fraction)
# answer = number (no unit)

Q: Entry O=C1NC23NC(=O)NC2(N1)C(=O)NC3=O (stereo unspecified) : reported solubility (mole fraction) = ?
A: 0.00151

* * *

# CONDITION: in toluene, 318.15 K
VALUE_TYPE: solubility (mole fraction)
# answer = number (no unit)

Q: Entry O=C1NC23NC(=O)NC2(N1)C(=O)NC3=O (stereo unspecified) : reported solubility (mole fraction) = ?
A: 2.6e-05

* * *

# CONDITION: in n-propanol, 278.15 K
VALUE_TYPE: solubility (mole fraction)
# answer = number (no unit)

Q: Entry O=C1NC23NC(=O)NC2(N1)C(=O)NC3=O (stereo unspecified) : reported solubility (mole fraction) = ?
A: 3.13e-05

* * *

# CONDITION: in 1,4-dioxane, 298.15 K
VALUE_TYPE: solubility (mole fraction)
# answer = number (no unit)

Q: Entry O=C1NC23NC(=O)NC2(N1)C(=O)NC3=O (stereo unspecified) : reported solubility (mole fraction) = ?
A: 0.000453

* * *

# CONDITION: in 1,4-dioxane, 308.15 K
VALUE_TYPE: solubility (mole fraction)
# answer = number (no unit)

Q: Entry O=C1NC23NC(=O)NC2(N1)C(=O)NC3=O (stereo unspecified) : reported solubility (mole fraction) = ?
A: 0.000696

* * *

# CONDITION: in toluene, 308.15 K
VALUE_TYPE: solubility (mole fraction)
# answer = number (no unit)

Q: Entry O=C1NC23NC(=O)NC2(N1)C(=O)NC3=O (stereo unspecified) : reported solubility (mole fraction) = ?
A: 1.5e-05

* * *

# CONDITION: in ethylene glycol, 308.15 K
VALUE_TYPE: solubility (mole fraction)
# answer = number (no unit)

Q: Entry O=C1NC23NC(=O)NC2(N1)C(=O)NC3=O (stereo unspecified) : reported solubility (mole fraction) = ?
A: 0.000638

* * *

# CONDITION: in ethanol, 273.15 K
VALUE_TYPE: solubility (mole fraction)
# answer = number (no unit)

Q: Entry O=C1NC23NC(=O)NC2(N1)C(=O)NC3=O (stereo unspecified) : reported solubility (mole fraction) = ?
A: 6.15e-05

* * *

# CONDITION: in ethylene glycol, 298.15 K
VALUE_TYPE: solubility (mole fraction)
# answer = number (no unit)

Q: Entry O=C1NC23NC(=O)NC2(N1)C(=O)NC3=O (stereo unspecified) : reported solubility (mole fraction) = ?
A: 0.000516

* * *

# CONDITION: in 1,4-dioxane, 283.15 K
VALUE_TYPE: solubility (mole fraction)

Q: Entry O=C1NC23NC(=O)NC2(N1)C(=O)NC3=O (stereo unspecified) : reported solubility (mole fraction) = ?
A: 0.000214

* * *

# CONDITION: in methanol, 273.15 K
VALUE_TYPE: solubility (mole fraction)
# answer = number (no unit)

Q: Entry O=C1NC23NC(=O)NC2(N1)C(=O)NC3=O (stereo unspecified) : reported solubility (mole fraction) = ?
A: 0.00161

* * *

# CONDITION: in acetone, 318.15 K
VALUE_TYPE: solubility (mole fraction)
# answer = number (no unit)

Q: Entry O=C1NC23NC(=O)NC2(N1)C(=O)NC3=O (stereo unspecified) : reported solubility (mole fraction) = ?
A: 0.000246

* * *

# CONDITION: in acetone, 283.15 K
VALUE_TYPE: solubility (mole fraction)
# answer = number (no unit)

Q: Entry O=C1NC23NC(=O)NC2(N1)C(=O)NC3=O (stereo unspecified) : reported solubility (mole fraction) = ?
A: 7.84e-05

* * *

# CONDITION: in isopropanol, 313.15 K
VALUE_TYPE: solubility (mole fraction)
# answer = number (no unit)

Q: Entry O=C1NC23NC(=O)NC2(N1)C(=O)NC3=O (stereo unspecified) : reported solubility (mole fraction) = ?
A: 0.000526

* * *

# CONDITION: in isopropanol, 288.15 K
VALUE_TYPE: solubility (mole fraction)
# answer = number (no unit)

Q: Entry O=C1NC23NC(=O)NC2(N1)C(=O)NC3=O (stereo unspecified) : reported solubility (mole fraction) = ?
A: 0.000192

* * *

# CONDITION: in ethanol, 278.15 K
VALUE_TYPE: solubility (mole fraction)
# answer = number (no unit)

Q: Entry O=C1NC23NC(=O)NC2(N1)C(=O)NC3=O (stereo unspecified) : reported solubility (mole fraction) = ?
A: 7.48e-05

* * *

# CONDITION: in methanol, 278.15 K
VALUE_TYPE: solubility (mole fraction)
# answer = number (no unit)

Q: Entry O=C1NC23NC(=O)NC2(N1)C(=O)NC3=O (stereo unspecified) : reported solubility (mole fraction) = ?
A: 0.00184

* * *

# CONDITION: in ethyl acetate, 298.15 K
VALUE_TYPE: solubility (mole fraction)
# answer = number (no unit)

Q: Entry O=C1NC23NC(=O)NC2(N1)C(=O)NC3=O (stereo unspecified) : reported solubility (mole fraction) = ?
A: 0.000124

* * *

# CONDITION: in ethyl acetate, 293.15 K
VALUE_TYPE: solubility (mole fraction)
# answer = number (no unit)

Q: Entry O=C1NC23NC(=O)NC2(N1)C(=O)NC3=O (stereo unspecified) : reported solubility (mole fraction) = ?
A: 9.2e-05

* * *

# CONDITION: in THF, 273.15 K
VALUE_TYPE: solubility (mole fraction)
# answer = number (no unit)

Q: Entry O=C1NC23NC(=O)NC2(N1)C(=O)NC3=O (stereo unspecified) : reported solubility (mole fraction) = ?
A: 0.000553

* * *

# CONDITION: in isopropanol, 298.15 K
VALUE_TYPE: solubility (mole fraction)
# answer = number (no unit)

Q: Entry O=C1NC23NC(=O)NC2(N1)C(=O)NC3=O (stereo unspecified) : reported solubility (mole fraction) = ?
A: 0.000284

* * *

# CONDITION: in toluene, 273.15 K
VALUE_TYPE: solubility (mole fraction)

Q: Entry O=C1NC23NC(=O)NC2(N1)C(=O)NC3=O (stereo unspecified) : reported solubility (mole fraction) = ?
A: 3.2e-06

* * *

# CONDITION: in THF, 288.15 K
VALUE_TYPE: solubility (mole fraction)
# answer = number (no unit)

Q: Entry O=C1NC23NC(=O)NC2(N1)C(=O)NC3=O (stereo unspecified) : reported solubility (mole fraction) = ?
A: 0.000992

* * *

# CONDITION: in ethyl acetate, 278.15 K
VALUE_TYPE: solubility (mole fraction)

Q: Entry O=C1NC23NC(=O)NC2(N1)C(=O)NC3=O (stereo unspecified) : reported solubility (mole fraction) = ?
A: 3.38e-05

* * *

# CONDITION: in toluene, 283.15 K
VALUE_TYPE: solubility (mole fraction)
# answer = number (no unit)

Q: Entry O=C1NC23NC(=O)NC2(N1)C(=O)NC3=O (stereo unspecified) : reported solubility (mole fraction) = ?
A: 5.4e-06

* * *

# CONDITION: in toluene, 313.15 K
VALUE_TYPE: solubility (mole fraction)

Q: Entry O=C1NC23NC(=O)NC2(N1)C(=O)NC3=O (stereo unspecified) : reported solubility (mole fraction) = ?
A: 1.95e-05

* * *

# CONDITION: in acetonitrile, 303.15 K
VALUE_TYPE: solubility (mole fraction)
# answer = number (no unit)

Q: Entry O=C1NC23NC(=O)NC2(N1)C(=O)NC3=O (stereo unspecified) : reported solubility (mole fraction) = ?
A: 3.6e-05

* * *

# CONDITION: in water, 293.15 K
VALUE_TYPE: solubility (mole fraction)
# answer = number (no unit)

Q: Entry O=C1NC23NC(=O)NC2(N1)C(=O)NC3=O (stereo unspecified) : reported solubility (mole fraction) = ?
A: 0.000159

* * *

# CONDITION: in ethylene glycol, 318.15 K
VALUE_TYPE: solubility (mole fraction)
# answer = number (no unit)

Q: Entry O=C1NC23NC(=O)NC2(N1)C(=O)NC3=O (stereo unspecified) : reported solubility (mole fraction) = ?
A: 0.000822

* * *

# CONDITION: in ethanol, 298.15 K
VALUE_TYPE: solubility (mole fraction)
# answer = number (no unit)

Q: Entry O=C1NC23NC(=O)NC2(N1)C(=O)NC3=O (stereo unspecified) : reported solubility (mole fraction) = ?
A: 0.00017

* * *

# CONDITION: in 1,4-dioxane, 318.15 K
VALUE_TYPE: solubility (mole fraction)
# answer = number (no unit)

Q: Entry O=C1NC23NC(=O)NC2(N1)C(=O)NC3=O (stereo unspecified) : reported solubility (mole fraction) = ?
A: 0.00102

* * *

# CONDITION: in acetonitrile, 288.15 K
VALUE_TYPE: solubility (mole fraction)

Q: Entry O=C1NC23NC(=O)NC2(N1)C(=O)NC3=O (stereo unspecified) : reported solubility (mole fraction) = ?
A: 1.72e-05
